System: U2OS
assay.remarks: Multiplex assay against U2OS
Type: toxicity, cell-based
details: human, 12 h, 10 µM, compound concentration 10 uM, replicate 2
endpoint: Total Cell Count
No unit in the answer, only the number.

Would you please look over these solved cases?
[
  {
    "compound": "Cc1sc2c(c1C)C(c1ccc(Cl)cc1)=N[C@@H](CC(=O)NCCCCCCCCNC(=O)COc1cccc3c1C(=O)N(C1CCC(=O)NC1=O)C3=O)c1nnc(C)n1-2 (stereo not given in full)",
    "Total Cell Count": 117
  },
  {
    "compound": "CCCCCC(O)/C=C/[C@H]1C(=O)CC(O)C1C/C=C\\CCCC(=O)O (stereo not given in full)",
    "Total Cell Count": 94
  },
  {
    "compound": "Cc1cnc(-c2cc(N3CCN(C(=O)CCS(C)(=O)=O)CC3)ncc2Cl)c(C)c1",
    "Total Cell Count": 88
  },
  {
    "compound": "N#Cc1c(Oc2cccc(OS(=O)(=O)CCCC(F)(F)F)c2)cccc1C(F)(F)F",
    "Total Cell Count": 112
  },
  {
    "compound": "Cc1c(CC(=O)O)c2cccnc2n1Cc1ccc(S(C)(=O)=O)cc1C(F)(F)F",
    "Total Cell Count": 116
  }
]

Problem: State its Total Cell Count: COC[C@@H](c1ccc(C(F)(F)F)cc1)N1CCN(C2(C)CCN(C(=O)c3c(C)ncnc3C)CC2)C[C@@H]1C.O=C(O)/C=C\C(=O)O [VICRIVIROC MALEATE]
Solution: 91

Problem: State its Total Cell Count: `CN[C@@H](C)C(=O)N[C@H](C(=O)N1CCC[C@H]1C(=O)Nc1snnc1-c1ccccc1)C1CCCCC1`
Solution: 114

Problem: State its Total Cell Count: `Cc1noc(-c2ccc(-c3ccc(CC(=O)O)cc3)cc2)c1NC(=O)O[C@H](C)c1ccccc1Cl`
Solution: 138

Problem: State its Total Cell Count: `C[C@H](N)COC(=O)[C@@H](CCCCN)NC(=O)Cc1c(-c2ccc3ccccc3c2)[nH]c2c1ccc1ccccc12`
Solution: 106

Problem: State its Total Cell Count: `CC[C@@H](C)Nc1nc(C)nc2c(-c3ccc(OC)nc3C)c(C)nn12`
Solution: 128

---

Measured Total Cell Count accompanies every entry in the list below.
Tested on: U2OS
assay.remarks: Multiplex assay against U2OS
Assay type: toxicity, cell-based
details: human, 48 h, 10 µM, compound concentration 10 uM, replicate 1
No unit in the answer, only the number.

Would you please look over these solved cases?
[
  {
    "compound": "COc1ccccc1N1CCN(C[C@@H](C(=O)NC(C)(C)C)c2ccccc2)CC1.Cl.Cl",
    "Total Cell Count": 271
  },
  {
    "compound": "CC[C@@H](C)Nc1nc(C)nc2c(-c3ccc(OC)nc3C)c(C)nn12 [PEXACERFONT]",
    "Total Cell Count": 478
  },
  {
    "compound": "Cl.NCCc1ccc(O)c(O)c1 [DOPAMINE HYDROCHLORIDE]",
    "Total Cell Count": 338
  },
  {
    "compound": "CN[C@@H](C)C(=O)N[C@H](C(=O)N1CCC[C@H]1C(=O)Nc1snnc1-c1ccccc1)C1CCCCC1 [GDC-0152]",
    "Total Cell Count": 246
  },
  {
    "compound": "Cc1c(CC(=O)O)c2cccnc2n1Cc1ccc(S(C)(=O)=O)cc1C(F)(F)F [FEVIPIPRANT]",
    "Total Cell Count": 408
  },
  {
    "compound": "CCc1cc2cc(NS(=O)(=O)c3ccc(C#N)cc3)ccc2n(CC)c1=O",
    "Total Cell Count": 387
  },
  {
    "compound": "CN1CCN(c2cc(-c3ccccc3)nc(N)n2)CC1",
    "Total Cell Count": 420
  },
  {
    "compound": "CC(/C=C1\\SC(=S)N(CCCC(=O)Nc2ccc(C(=O)O)c(O)c2)C1=O)=C\\c1ccccc1",
    "Total Cell Count": 396
  },
  {
    "compound": "CN(C)C(=O)Cn1cc(-c2ccc(-c3cncc4ccccc34)cc2)cn1",
    "Total Cell Count": 302
  },
  {
    "compound": "Br.CS(=O)(=O)Nc1c(O)ccc2c1CCCC2C1=NCCN1 (configuration not stated)",
    "Total Cell Count": 333
  }
]

Problem: Find the measured Total Cell Count of CC(C)(C)c1cc(NC(=O)Nc2ccc(-c3cn4c(n3)sc3cc(OCCN5CCOCC5)ccc34)cc2)no1 [QUIZARTINIB] with U2OS as test system.
Solution: 219

Problem: Find the measured Total Cell Count of `Cc1noc(-c2ccc(-c3ccc(CC(=O)O)cc3)cc2)c1NC(=O)O[C@H](C)c1ccccc1Cl` with U2OS as test system.
Solution: 344

The measured values listed here are drawn from ChEMBL document CHEMBL5058577.
